# Tested on: Mus musculus
# ASSAY: In vivo antibacterial activity against MSSA MB 2985 strain at the dose ~4 *10e7 cfu in brain heart broth along with antibiotic by administration at 0 hour in mice
# Format: functional
MEASURED_PARAMETER: MIC (µg/mL)
Give the quantity in µg/mL, number only.

| SMILES_ENTRY | MEASURED_PARAMETER | EXPERIMENTAL_RESULT |
| --- | --- | --- |
| CN[C@H](CC(C)C)C(=O)N[C@H]1C(=O)N[C@@H](CC(N)=O)C(=O)N[C@H]2C(=O)N[C@H]3C(=O)N[C@H](C(=O)N[C@H](C(=O)O)c4cc(O)cc(O)c4-c4cc3ccc4O)[C@H](O)c3ccc(c(Cl)c3)Oc3cc2cc(c3O[C@@H]2O[C@H](CO)[C@@H](O)[C@H](O)[C@H]2O[C@H]2C[C@](C)(N)[C@H](O)[C@H](C)O2)Oc2ccc(cc2Cl)[C@H]1O | MIC | 1 |

Note: attention shifts to another entry.
Entry C[C@@H](O)[C@H]1C(=O)N2C(C(=O)[O-])=C(c3ccc4c(c3)-c3ccc(C[N+]56CC[N+](CC(N)=O)(CC5)CC6)cc3C4=O)C[C@H]12.[Cl-] ; MIC = 0.004
